Origin of measurements: ChEMBL document CHEMBL1287745

system: Trichomonas vaginalis; test: Antiparasitic activity against Trichomonas vaginalis T1 at […] after 24 hrs by hemocytometric analysis; format: functional
A collection of compounds and their measured growth inhibition (GI)

compound: O[C@@H]1[C@H](O)[C@@H](C=C(Br)Br)O[C@H]1n1cnc2c(NC3CC3)ncnc21
unit_abbreviation: %
growth inhibition (GI): 12

compound: Nc1ncnc2c1ncn2[C@@H]1O[C@H](C=NO)[C@@H](O)[C@H]1O
unit_abbreviation: %
growth inhibition (GI): 93

compound: Nc1ncnc2c1ncn2[C@@H]1O[C@H](/C=C/C#CI)[C@@H](O)[C@H]1O
unit_abbreviation: %
growth inhibition (GI): 34

compound: COC(=O)C(O)CCn1cnc2c(N)ncnc21 (stereo not given)
unit_abbreviation: %
growth inhibition (GI): 16

compound: ON=C[C@H]1O[C@@H](n2cnc3c(NC4CC4)ncnc32)[C@H](O)[C@@H]1O
unit_abbreviation: %
growth inhibition (GI): 41
